Target: T1, human IgE (human, UniProt P01854 1-428)
T1 construct: written under the same molecule; also called IgE (Abcam ab65866); soluble IgE
T1 sequence (P01854 other isoform, or with tags, fused parts or gaps limits assumed, form in doubt): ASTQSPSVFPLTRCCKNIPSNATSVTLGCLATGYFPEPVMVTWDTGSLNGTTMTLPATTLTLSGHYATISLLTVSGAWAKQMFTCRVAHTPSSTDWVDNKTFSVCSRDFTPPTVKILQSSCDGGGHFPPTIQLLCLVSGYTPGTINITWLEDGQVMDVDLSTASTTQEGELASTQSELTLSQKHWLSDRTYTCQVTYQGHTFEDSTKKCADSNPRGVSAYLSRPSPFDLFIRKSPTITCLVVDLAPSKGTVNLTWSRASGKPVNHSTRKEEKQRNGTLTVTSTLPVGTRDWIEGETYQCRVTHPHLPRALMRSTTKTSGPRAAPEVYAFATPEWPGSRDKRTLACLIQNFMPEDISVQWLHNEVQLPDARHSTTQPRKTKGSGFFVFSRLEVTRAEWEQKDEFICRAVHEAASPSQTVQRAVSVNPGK
Test: ELISA, clone lysate on IgE-coated plate
Threshold-based label: R1 Screening OD450 under 1 gives Condition met, R1 Screening OD450 not under 1 gives Condition not met.

# binder, classification
data = [
    ("9H9 (VHH, also called hzB10v40 VHH, CDR1 site 9 M to F) VHH: EVQLLESGGGEVQPGGSLRLSCVASGLTFSSYNFGWLRQAPGKEREFVGLSGSSSTSTYYAESVKGRFTISRDNAKNTVYLQMTSLRAEDTAVYYCAARRLLSTYWSDRSWDFWGQGTLVTVEP", "Condition met"),
    ("3-1B9 (VHH, also called hzB10v40 VHH, CDR1 site 3 T to N) VHH: EVQLLESGGGEVQPGGSLRLSCVASGLNFSSYNMGWLRQAPGKEREFVGLSGSSSTSTYYAESVKGRFTISRDNAKNTVYLQMTSLRAEDTAVYYCAARRLLSTYWSDRSWDFWGQGTLVTVEP", "Condition met"),
    ("6G9 (VHH, also called hzB10v40 VHH, CDR1 site 6 S to A) VHH: EVQLLESGGGEVQPGGSLRLSCVASGLTFSAYNMGWLRQAPGKEREFVGLSGSSSTSTYYAESVKGRFTISRDNAKNTVYLQMTSLRAEDTAVYYCAARRLLSTYWSDRSWDFWGQGTLVTVEP", "Condition met"),
    ("2-1F11 (VHH, also called hzB10v40 VHH, CDR1 site 2 L to I) VHH: EVQLLESGGGEVQPGGSLRLSCVASGITFSSYNMGWLRQAPGKEREFVGLSGSSSTSTYYAESVKGRFTISRDNAKNTVYLQMTSLRAEDTAVYYCAARRLLSTYWSDRSWDFWGQGTLVTVEP", "Condition met"),
    ("5A10 (VHH, also called hzB10v40 VHH, CDR1 site 5 S to A) VHH: EVQLLESGGGEVQPGGSLRLSCVASGLTFASYNMGWLRQAPGKEREFVGLSGSSSTSTYYAESVKGRFTISRDNAKNTVYLQMTSLRAEDTAVYYCAARRLLSTYWSDRSWDFWGQGTLVTVEP", "Condition met"),
    ("44A11 (VHH) VHH: EVQLLESGGGEVQPGGSLRLSCVASGLTFSSYNMGWLRQAPGKEREFVGLSGSSSTSTYYAESVKGRFTISRDNAKNTVYLQMTSLRAEDTAVYYCAARRLLSTYWSDRSWDKWGQGTLVTVEP", "Condition not met"),
]
